- TARGET_UNDER_TEST: T1, human MSLN-R3 protein (human, UniProt Q13421 487-598)
- T1 construct: also called hMSLN-R3
- MEASUREMENT_DESCRIPTION: ELISA on coated antigen, antibody 100 nM
PROPERTY_NAME: OD450 (OD450)

BINDER	MEASURED_RESULT
F7.44.20-VL-VH (scFv, not shown: small tags and cut ends, also called S009-F7.44.20 parental variable regions, VL-VH order) scFv: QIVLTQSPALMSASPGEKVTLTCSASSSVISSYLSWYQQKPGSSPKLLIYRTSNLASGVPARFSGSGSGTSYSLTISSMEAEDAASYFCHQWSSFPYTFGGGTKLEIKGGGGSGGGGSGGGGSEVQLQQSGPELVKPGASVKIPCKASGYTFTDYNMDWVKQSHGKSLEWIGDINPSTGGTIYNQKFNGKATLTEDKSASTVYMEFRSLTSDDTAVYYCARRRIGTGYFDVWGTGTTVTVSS	1.8
